Here the recorded EC50 is given for each entry.
Biological target: PPARδ (Homo sapiens, UniProt Q03181)
Construct: fused to amino acids 147-441 of PPARδ downstream of CMV promoter; expressed in transfected cells; host or cells: HEK293 cells, transiently transfected with pFACMV-PPARδ using Fugene
Assay: Transactivation assay (PPARδ GAL4 assay) in transiently transfected HEK293 cells
Assay type: cell-based
Conditions: luciferase reporter, Table 2
Description: Compounds were screened for their functional potency in transiently transfected HEK293 cells for their ability to activate PPAR subtypes. […] 100 μl of luciferase reagent (Bright Glo, Promega) was added directly to each well, and the luminescence determined using a suitable luminometer. To measure the selectivity of compounds, their ability to transactivate GAL4 fusions of PPARα LBD and PPARγ LBD was determined. […] EC50 values were calculated by fitting of the data to a sigmoidal dose response curve.
Where a name gives a salt, the structure may show the parent alone.

Reference set (5 entries):
>>> df
                                   compound  value_measured
0  CCc1cc(C(=O)c2ccc(OC(C)C)c(Cl)c2)c(NC(=O)CSCC(=O)O)s1     0.1 to 1 µM
1  CCc1cc(C(=O)c2ccc(OC(F)(F)F)cc2)c(NC(=O)CN2[C@H](C)CC[C@@H]2C(=O)O)s1 (relative stereo)      1 to 30 µM
2  CCc1cc(C(=O)c2nc3cc(Cl)ccc3s2)c(NC(=O)CSCC(=O)O)s1     0.1 to 1 µM
3  CCc1cc(C(=O)c2ccc(OC(F)(F)F)cc2)c(NC(=O)C(C)N2CCC[C@@H]2C(=O)O)s1 (some centres unmarked)        < 0.1 µM
4  CCc1cc(C(=O)c2ccc(OC(F)(F)F)cc2)c(NC(=O)CSC(C(=O)O)c2ccccc2)s1 (centres unmarked)     0.1 to 1 µM

Could you tell me which EC50 is on file for CCc1cc(C(=O)c2ccc(OC(F)(F)F)cc2)c(NC(=O)CN[C@@H](C)C(=O)O)s1 ? 0.1 to 1 µM

Request the reported EC50 associated with CCc1cc(C(=O)c2ccc(OC(F)(F)F)cc2)c(NC(=O)C(C)NCC(=O)O)s1 (centres unmarked) 0.1 to 1 µM

// returns reported EC50 for input CCc1cc(C(=O)c2ccc(Cl)cc2)c(NC(=O)CN2[C@@H](C(=O)O)CC[C@@H]2c2ccccc2)s1 [Example 187, hydrochloride] 0.1 to 1 µM

Which measured EC50 value corresponds to CCc1cc(C(=O)c2ccc(OC(F)(F)F)c(Cl)c2)c(NC(=O)CNC(C)(C)C(=O)O)s1 ? < 0.1 µM

====

Molecular target: PPARδ (Homo sapiens, UniProt Q03181)
Construct: fused to amino acids 147-441 of PPARδ downstream of CMV promoter; expressed in transfected cells; host or cells: HEK293 cells, transiently transfected with pFACMV-PPARδ using Fugene
Sequence (Q03181 147-441): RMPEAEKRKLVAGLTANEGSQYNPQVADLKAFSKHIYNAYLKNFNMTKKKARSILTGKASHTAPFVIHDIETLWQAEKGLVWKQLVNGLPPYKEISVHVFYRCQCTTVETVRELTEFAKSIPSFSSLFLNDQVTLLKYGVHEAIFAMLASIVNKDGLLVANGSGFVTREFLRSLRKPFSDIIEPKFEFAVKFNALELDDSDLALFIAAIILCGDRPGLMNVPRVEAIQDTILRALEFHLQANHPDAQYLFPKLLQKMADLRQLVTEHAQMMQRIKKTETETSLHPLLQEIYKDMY
Assay: Transactivation assay (PPARδ GAL4 assay) in transiently transfected HEK293 cells
Format: cell-based
Settings: luciferase reporter, Table 2
Method: Compounds were screened for their functional potency in transiently transfected HEK293 cells for their ability to activate PPAR subtypes. […] 100 μl of luciferase reagent (Bright Glo, Promega) was added directly to each well, and the luminescence determined using a suitable luminometer. To measure the selectivity of compounds, their ability to transactivate GAL4 fusions of PPARα LBD and PPARγ LBD was determined. […] EC50 values were calculated by fitting of the data to a sigmoidal dose response curve.
pEC50: −log10 of the molar value.
recorded metric: pEC50

In [3]: df
Out[3]:
                                   molecule  recorded_metric  value_measured
0  CCc1cc(C(=O)c2ccc(OC(F)(F)F)cc2)c(NC(=O)CN(C)C2(C(=O)O)CC2)s1            pEC50    6.00 to 7.00

Any idea what pEC50 was measured for CCc1cc(C(=O)c2ccc(OC(F)(F)F)cc2)c(NC(=O)CN(C)C(C)(C)C(=O)O)s1 ? 4.52 to 6.00

# pEC50 lookup, item CCc1cc(C(=O)c2cc3ccccc3o2)c(NC(=O)CSCC(=O)O)s1 4.52 to 6.00

So what's the measured pEC50 for this one? CCc1cc(C(=O)c2cccc(OC(F)(F)F)c2)c(NC(=O)CSCC(=O)O)s1 4.52 to 6.00

Dear colleague, I am looking for the recorded pEC50 of the following molecule: CCc1cc(C(=O)c2ccc(OC(F)(F)F)cc2)c(NC(=O)C(SCC(=O)O)C(C)C)s1 (centres unmarked) 6.00 to 7.00

The measurements presented in this section are drawn from patent US20100063065A1.
